Molecular target: T1, recombinant mouse GPC2 (mouse, UniProt Q8BKV1 22-556, limits assumed)
T1 sequence (looked up): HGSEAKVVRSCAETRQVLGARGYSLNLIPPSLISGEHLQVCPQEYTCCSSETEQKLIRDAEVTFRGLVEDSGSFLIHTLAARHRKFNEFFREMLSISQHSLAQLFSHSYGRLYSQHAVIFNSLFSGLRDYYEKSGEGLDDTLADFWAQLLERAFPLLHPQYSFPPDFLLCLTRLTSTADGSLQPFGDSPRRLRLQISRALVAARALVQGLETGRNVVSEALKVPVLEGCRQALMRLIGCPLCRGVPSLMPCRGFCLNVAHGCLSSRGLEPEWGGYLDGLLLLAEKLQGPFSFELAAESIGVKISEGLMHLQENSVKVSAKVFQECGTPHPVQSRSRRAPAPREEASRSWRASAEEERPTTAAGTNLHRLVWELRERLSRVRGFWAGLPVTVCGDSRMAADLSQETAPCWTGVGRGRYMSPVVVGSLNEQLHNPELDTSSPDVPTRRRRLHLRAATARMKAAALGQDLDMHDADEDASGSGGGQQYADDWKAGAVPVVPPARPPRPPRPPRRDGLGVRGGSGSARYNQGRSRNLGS
Experiment: monoclonal phage ELISA on recombinant glypicans
VALUE KIND: binding result

INSERT INTO results (binder, value_kind, recorded_measurement) VALUES
  ('VH single domain antibody LH6 (phage clone) (VHH, Human VH single domain) VHH: QVQLVQSGGGLVQPGGSLRLSCAASDFYFDDYEMSWVRQAPGKGLEWVSTISGSGGGTYYADSVKGRFTISRDNSKNTLYLQMNTLRAEDTATYYCARGYSYDDSRYFDYWGQGTLVTVSS', 'binding result', 'binds'),
  ('VH single domain antibody LH7 (phage clone) (VHH, Human VH single domain) VHH: QVQLVQSGGGLVQPGGSLRLSCAASDFYFYDYEMSWVRQAPGKGLEWIGTVSYSGSTYYNPSLKSRVTISRDNSKNTLYLQMNTLRAEDTAMYYCARGYSYDDSRYFDYWGQGTLVTVSS', 'binding result', 'no binding'),
  ('VH single domain antibody LH4 (phage clone) (VHH, Human VH single domain) VHH: QVQLVQSGGGLVQPGGSLRLSCAASSFYFDDYEMSWVRQAPGKALEWIGRIYTSGSTNYNPSLKSRVTISRDNSKNTLYLQMNTLRAEDTATYYCARGYCSGGSCYFDYWGQGTLVTVSS', 'binding result', 'binds'),
  ('VH single domain antibody LH2 (phage clone) (VHH, Human VH single domain) VHH: QVQLVQSGGGLVQPGGSLRLSCAASDFYFYSYEVSWVRQAPGKALEWIGYIYYSGSTTYNPSLKSRVTISRDNSKNTLYLQMNTLRAEDTAIYYCAVRDNWNDVDYWGQGTLVTVSS', 'binding result', 'no binding'),
  ('VH single domain antibody LH1 (phage clone) (VHH, Human VH single domain (not camelid)) VHH: QVQLVQSGGGLVQPGGSLRLSCAASDFDFAAYEMSWVRQAPGKGLEWIGEINHSGSTTYNPSLKSRVTISRDNSKNTLYLQMNTLRAEDTAVYYCATAVHYYDSSGYYHDAFDIWGQGTLVTVSS', 'binding result', 'no binding'),
  ('VH single domain antibody LH3 (phage clone) (VHH, Human VH single domain) VHH: QVQLVQSGGGLVQPGGSLRLSCAASSFSFADYEMSWVRQAPGKALEWIGRIYTSGSTNYNPSLKSRVTISRDNSKNTLYLQMNTLRAEDTATYYCARGYSGYDGSHYFDYWGQGTLVTVSS', 'binding result', 'binds');
